- target.of.assay: T1, IFIT1 (UniProt P09914 1-478)
- T1 sequence: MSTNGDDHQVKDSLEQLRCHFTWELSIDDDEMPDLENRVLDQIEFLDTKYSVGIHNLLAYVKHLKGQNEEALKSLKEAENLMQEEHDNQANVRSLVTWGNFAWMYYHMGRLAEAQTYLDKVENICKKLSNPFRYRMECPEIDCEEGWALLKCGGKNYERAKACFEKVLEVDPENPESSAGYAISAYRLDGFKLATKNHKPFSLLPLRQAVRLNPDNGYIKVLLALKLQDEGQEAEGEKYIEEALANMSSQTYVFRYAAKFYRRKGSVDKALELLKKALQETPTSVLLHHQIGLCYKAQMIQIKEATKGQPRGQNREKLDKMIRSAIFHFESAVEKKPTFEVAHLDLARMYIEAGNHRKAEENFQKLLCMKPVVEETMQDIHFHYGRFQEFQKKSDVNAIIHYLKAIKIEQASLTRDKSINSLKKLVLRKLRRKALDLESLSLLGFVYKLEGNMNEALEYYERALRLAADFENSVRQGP
- procedure.details: BLI
Reported Kd values for the following binders.
Field format: number, assumed nM, no unit text.

Worked cases, answers included:
binder	Kd (nM)
AGGAGACCGGCCUCGA (ssRNA, 5' m7GpppA cap 0) [m7GpppAG-16ntRNA (m7GpppA)]	6.12
AGGAGACCGGCCUCGA (ssRNA, 5' m7GpppAm cap 1 (2'-O-methyl A1)) [m7GpppAmG-16ntRNA]	44
AGGAGACCGGCCUCGA (ssRNA, 5' GpppA cap (unmethylated; cap G not in strand)) [GpppA-16ntRNA]	2.65

Now let's try a different one.
AGGAGACCGGCCUCGA (ssRNA, 5' triphosphate) [pppA-16ntRNA] has a reported Kd of 23.4
